- TEST SYSTEM: HLA-B*15:42
- PROTOCOL TEXT: IEDB peptide-MHC binding, purified MHC/competitive/fluorescence; filed as Kd, often an IC50 or EC50 that approximates it; bounds were set here for any values at or beyond the usual limits of such assays
- SETTINGS: source organism: Homo sapiens
pKd: −log10 of the molar value.
METRIC: pKd

The sequence identified as MPMKGRFPI registered its pKd at ≤ 5.30

====

- TEST SYSTEM: HLA-A*01:01
- PROTOCOL TEXT: IEDB peptide-MHC binding, purified MHC/competitive/radioactivity; filed as Kd, often an IC50 or EC50 that approximates it; bounds were set here for any values at or beyond the usual limits of such assays
- SETTINGS: source organism: Lassa virus Josiah
Below, each entry is listed alongside its reported Kd.
Dear colleague, please return just the value in µM, with no unit written.

The sequence identified as YCNYSKYWYL registered its Kd at 9.73

The sequence identified as KCWLVSNGSY registered its Kd at 11.5

The sequence identified as HYLCLNCLT registered its Kd at 6.91

====

- TEST SYSTEM: HLA-B*53:01
- PROTOCOL TEXT: IEDB peptide-MHC binding, purified MHC/competitive/radioactivity; filed as Kd, often an IC50 or EC50 that approximates it; bounds were set here for any values at or beyond the usual limits of such assays
- SETTINGS: source organism: Vaccinia virus WR
pKd: −log10 of the molar value.
METRIC: pKd

> print(dat)
   polymer.sequence  result
1        RPKILSMINY    5.95

Test item VPNITISSNA ; HLA-B*53:01; reported pKd was ≤ 4.16

Test item LMYDIINSV ; HLA-B*53:01; reported pKd was ≤ 4.11

====

- TEST SYSTEM: HLA-A*68:01
- PROTOCOL TEXT: IEDB peptide-MHC binding, purified MHC/competitive/radioactivity; filed as Kd, often an IC50 or EC50 that approximates it; bounds were set here for any values at or beyond the usual limits of such assays
- SETTINGS: source organism: SARS coronavirus Tor2
METRIC: log10(Kd) (log10 of the value in nM)
Quick note: numbers are log10 of Kd, with nM as the unit.

> print(dat)
   polymer.sequence  number
1         LLDSYFVVK    3.31

The sequence identified as LLFVVEVVDK registered its log10(Kd) at 3.12

The sequence identified as SLCFLLTQK registered its log10(Kd) at 3.08

The sequence identified as QSLCFLLTQK registered its log10(Kd) at 1.80

The sequence identified as AAISDYDYY registered its log10(Kd) at 3.68

The sequence identified as QQLRVESSSK registered its log10(Kd) at 3.29

The sequence identified as ALCTFLLNK registered its log10(Kd) at 3.02

The sequence identified as SQIQLSLLK registered its log10(Kd) at 3.80

====

- TEST SYSTEM: HLA-A*26:01
- PROTOCOL TEXT: IEDB peptide-MHC binding, purified MHC/competitive/fluorescence; filed as Kd, often an IC50 or EC50 that approximates it; bounds were set here for any values at or beyond the usual limits of such assays
- SETTINGS: source organism: Influenza A virus (A/Gf/HK/SSP607/2003(H9N2))
pKd: −log10 of the molar value.
METRIC: pKd

The sequence identified as AMITYITRK registered its pKd at ≤ 4.70
